# protocol_description: logP values
# Format: physicochemical
Below is a list of entries, each paired with its recorded logP value.
Format: numeric value only, no unit, no commentary.

Some solved cases for reference:
| compound | quantitative_result |
| --- | --- |
| C[C@]12C=CC(=O)C=C1CC[C@@H]1[C@@H]2[C@@H](O)C[C@@]2(C)[C@H]1CC[C@]2(O)C(=O)CO [Prednisolone] | 1.69 |
| Cc1cn([C@H]2CC(=O)[C@@H](CO)O2)c(=O)[nH]c1=O [HM-1, 3′-Deoxy-3′-oxothymidine] | -1.13 |

Now for the compound whose logP we want.
Measured logP of CCOC(=O)O[C@]1(C(=O)COC(=O)CC)CC[C@H]2[C@@H]3CCC4=CC(=O)C=C[C@]4(C)[C@H]3[C@@H](O)C[C@@]21C [Prednicarbate] : 3.82
